These entries and their values trace back to paper PMC5784132.

Molecular target: VDR (Homo sapiens)
Sequence (P11473 whole entry): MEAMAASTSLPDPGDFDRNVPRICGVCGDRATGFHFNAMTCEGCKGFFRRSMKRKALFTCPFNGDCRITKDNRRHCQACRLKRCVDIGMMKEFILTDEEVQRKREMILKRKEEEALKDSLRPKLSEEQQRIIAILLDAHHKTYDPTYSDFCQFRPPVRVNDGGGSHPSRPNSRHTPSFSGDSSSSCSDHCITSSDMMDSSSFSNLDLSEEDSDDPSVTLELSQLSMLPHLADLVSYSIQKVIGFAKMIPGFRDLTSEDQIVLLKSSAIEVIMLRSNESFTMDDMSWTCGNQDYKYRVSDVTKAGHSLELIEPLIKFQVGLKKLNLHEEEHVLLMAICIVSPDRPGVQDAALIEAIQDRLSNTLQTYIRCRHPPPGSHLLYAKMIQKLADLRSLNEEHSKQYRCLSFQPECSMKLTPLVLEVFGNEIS
Assay: VDRE-luciferase reporter assay in Caco-2 cells
measured parameter: EC50 (µM)
Expressed in µM, but write only the number.

Observe how each entry below is paired with its result.
given smiles	target desc	readout units	EC50
C=C1CC[C@H](O)C/C1=C/C=C1\CCC[C@@]2(C)[C@H]1CC[C@@H]2[C@@](C)(O)CCC=C(C)C	VDR (Homo sapiens)	µM	0.58
C=C1/C(=C\C=C2/CCC[C@@]3(C)[C@H]2CC[C@@H]3[C@@](C)(O)CCC=C(C)C)C[C@@H](O)C[C@@H]1O	VDR (Homo sapiens)	µM	0.182
C=C1/C(=C\C=C2/CCC[C@@]3(C)[C@H]2CC[C@@H]3[C@@](C)(O)CCOC(C)C)C[C@@H](O)C[C@@H]1O	VDR (Homo sapiens)	µM	0.188

## Task Query EC50 for C=C1/C(=C\C=C2/CCC[C@@]3(C)[C@H]2CC[C@@H]3[C@@](C)(O)CCC(F)(F)C(C)C)C[C@@H](O)C[C@@H]1O
## Result 0.236
